Reference for the values: PubChem BioAssay (NCI)

# Test system: ACHN renal
# assay_overview: NCI tumour cell line growth inhibition, 48 h
measure_name: TGI (µM)
Give your result in µM as a bare value.

Field: example entries. Status: answers known.
COc1cc(C)c(NC(=O)CN(C)C)cc1Nc1nc(Nc2cccc(F)c2C(N)=O)c2cc[nH]c2n1 = 7.35
Cc1cc2nc(C(Cl)Cl)nc(-c3ccccc3)n2n1 = 5.12
COc1ccc(C(SCC(N)C(=O)O)(c2ccc(OC)cc2)c2ccc(OC)cc2)cc1 (centres undefined) = 18.6

Prompt: # return recorded TGI for input COC1=CC(=O)C2C(C1=O)C(c1ccc(OC)c(OC)c1)[C@H]2C (some centres undefined)
Response: 33.4
